test: protein stability index of a GFP-peptide fusion (yeast GPS) (PSI 1-4); higher = more stable; sorted into four equal gates, so the index is relative within each strain; details: ubr1∆
Lab note: anything with protein stability index at or over 3 counts as Satisfied; the rest go in Not satisfied.

Past entries and their recorded results:
| biopolymer.sequence | discrete.label |
| --- | --- |
| LSLQRANVEILAVEDKP [CSL4] | Not satisfied |
| AGVNNDNTKESKDVKMN [RTT102] | Not satisfied |
| DITDGKDYHTLANNVES [RPS18A] | Satisfied |
| ERDEQKRAEKKAKERLQ [SNF2] | Satisfied |
| QAINLGQVVLTPLTFAL [RPL14A] | Not satisfied |

Prompt: Hi, just wondering whether GDIVLTRVTRLSLQRAN [CSL4] shows protein stability index of 3 or higher.
Response: Not satisfied

Prompt: Hi, just wondering whether PILVTLVSDSEIIDLNL [POP6] shows protein stability index of 3 or higher.
Response: Not satisfied

Prompt: Hi, just wondering whether SSAHLIRINDEPILGQI [YML103C/NUP188] shows protein stability index of 3 or higher.
Response: Not satisfied

====

test: protein stability index of a GFP-peptide fusion (yeast GPS) (PSI 1-4); higher = more stable; sorted into four equal gates, so the index is relative within each strain; details: pdr5∆
Listed here are sequences together with their documented protein stability index.

Completed entries (count: 5):
| biopolymer.sequence | protein stability index |
| --- | --- |
| MATNKIETLDPALIRPG [RPT2] | 3.31 |
| RGTTAVLKESIVNICDI [PUP1] | 3.2 |
| RREELQQRIREIGLLPE [SMC3] | 3.06 |
| ELGEFFVNGVATSFSRK [FAS2] | 2.6 |
| FGQRAVLKFAAHTGATP [RPS0A] | 2.56 |

Prompt: Consider the sequence LKSESATSQYLKQDLKK [YGL172W/NUP49] and give its measured protein stability index.
Response: 2.88

Prompt: Consider the sequence IYRTTRQDGSYTYHSTN [ARP9] and give its measured protein stability index.
Response: 2.74

Prompt: Consider the sequence MSLTTAAPLLALLRENQ [RPN2] and give its measured protein stability index.
Response: 3.31

Prompt: Consider the sequence ALPNIENDIIKLSDSKT [BRR2] and give its measured protein stability index.
Response: 3.16

Prompt: Consider the sequence QLLMGDIPELSFFHQSN [RPN3] and give its measured protein stability index.
Response: 2.2

Prompt: Consider the sequence VDVQAPTDDKTLKPTFS [YOR098C/NUP1] and give its measured protein stability index.
Response: 3.23

Prompt: Consider the sequence YENIPIYATFLNESDCL [YDL116W/NUP84] and give its measured protein stability index.
Response: 2.54

Prompt: Consider the sequence AKWAPTLRTISFKGSPN [SNF2] and give its measured protein stability index.
Response: 3.11

Prompt: Consider the sequence LKKGEQKTQELNAKYQS [ISW2] and give its measured protein stability index.
Response: 3.22

Prompt: Consider the sequence SSVEMLLDVVKGTEASN [YDL116W/NUP84] and give its measured protein stability index.
Response: 3.1

Prompt: Consider the sequence EESINEFKSIEIEMKNK [SMC4] and give its measured protein stability index.
Response: 3.56

Prompt: Consider the sequence ISFAIYSALNSTYLPKL [RRP42] and give its measured protein stability index.
Response: 2.3

From: the supplement of paper PMC9732359
